- assayed-target: Glutamate [NMDA] receptor
- test-summary: Binding affinity towards PCP receptor in guinea pig brain membrane using radiolabeled ligand [3H]TCP (1-[1-(2-thienyl)cyclohexyl]piperidine) was determined
- Type: cell membranes, Cavia porcellus
observation-type: log10(Ki) (log10 of the value in µM)
Note the log scale: values are log10 of Ki expressed in µM.

Sample O=C1C(c2ccc(F)cc2)COC12CCN(Cc1ccccc1)CC2 (centres undefined) — what was its log10(Ki)?
0.35

Could you share which log10(Ki) value was measured for "O=C1C=C(c2ccccc2)OC12CCN(Cc1ccccc1)CC2" ?
0.64

Fill in the blank: the reported log10(Ki) of CCN(CC)CCCC1(C)OC=C(c2ccccc2)C1=O (centres undefined) is ____.
2.00

If you can, please state the reported log10(Ki) value of "O=C1C(c2ccc(F)cc2)=COC12CCN(CC1CCCCC1)CC2" .
1.08

Query: log10(Ki); subject: "O=C1C=C(c2ccc(F)cc2)OC12CCN(CCc1ccccc1)CC2"
0.92

Given "O=C1C(c2ccc(F)cc2)=COC12CCN(Cc1ccc(F)cc1)CC2" , state its recorded log10(Ki).
0.31

====

- assayed-target: Glutamate [NMDA] receptor
- test-summary: Binding affinity towards PCP receptor in guinea pig brain membrane using radiolabeled ligand [3H]TCP (1-[1-(2-thienyl)cyclohexyl]piperidine) was determined
observation-type: Ki

What value of measured Ki is listed for "O=C1C(c2ccccc2)=COC12CCN(CC1CCCCC1)CC2" ?
> 10 µM

Query (molecule): "O=C1C(c2ccc(F)cc2)=COC12CCN(Cc1ccccc1)CC2" ; field requested: Ki
> 10 µM

Given the molecule "O=C1C=C(c2ccccc2)OC12CCN(CCc1ccccc1)CC2" , what is its reported Ki?
> 10 µM
